target: UniProt:Q9UJM8; experiment: GO Cellular Assay: CHO-Agt Cells Assay (Assay 3); format: cell-based, Chinese hamster; design: host or cells: CHO cells (A.T.C.C. CCl-61) and engineered CHO-Agt cells (from Fargue/Danpure); settings: 100 uM glycolic acid, glyoxylate by LC-MS at 2 hours, read-out: Range of IC50 values calculated from the cellular assays (Assay 3)
Here, each record is paired with measured IC50 data.

Field: example entries. Status: answers known.
chemical.smiles | IC50
OCc1[nH]nnc1Sc1ccc(-c2ccc(N3CCCCC3)cc2)cc1 | > 10000 nM
OCc1[nH]nnc1Oc1ccc(-c2ccc(OC(F)(F)F)cc2)cc1 | 1000 to 5000 nM
CC(C)OC(=O)OCOC(=O)c1[nH]nnc1O[C@H]1CC[C@H](c2ccc(OC(F)(F)F)cc2)CC1 | < 1000 nM

Given the molecule `O=Cc1[nH]nnc1O[C@H]1CC[C@H](c2ccc(OC(F)(F)F)cc2)CC1` , what is its reported IC50?
< 1000 nM

Given the molecule `OCc1[nH]nnc1Oc1ccc(-c2ccc(Cl)c(Cl)c2)cc1` , what is its reported IC50?
1000 to 5000 nM

Given the molecule `OCc1[nH]nnc1S[C@H]1CC[C@@H](c2ccc(OC(F)(F)F)cc2)CC1` , what is its reported IC50?
1000 to 5000 nM

----------
target: GO (Homo sapiens, UniProt Q9UJM8); assay: GO Enzymatic Assay (Assay 1); type: biochemical; parameters: purchased Novus Biologicals NBP1-72412; conditions: human GO, glycolate substrate, pH 7, percent inhibition relative to DMSO control; read-out: Range of IC50 values calculated from the enzymatic assays (Assay 1)
Sequence (Q9UJM8 whole entry): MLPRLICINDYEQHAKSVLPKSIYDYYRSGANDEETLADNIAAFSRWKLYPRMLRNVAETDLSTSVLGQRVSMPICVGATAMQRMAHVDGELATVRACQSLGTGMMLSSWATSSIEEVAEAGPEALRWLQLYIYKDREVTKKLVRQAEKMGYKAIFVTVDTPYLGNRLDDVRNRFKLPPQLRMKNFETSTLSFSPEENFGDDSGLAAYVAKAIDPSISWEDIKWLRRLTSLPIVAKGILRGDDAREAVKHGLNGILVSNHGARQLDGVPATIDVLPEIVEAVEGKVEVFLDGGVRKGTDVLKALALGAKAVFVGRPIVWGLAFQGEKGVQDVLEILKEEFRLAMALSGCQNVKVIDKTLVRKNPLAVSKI
pIC50: −log10 of the molar value.
Here, each record is paired with measured pIC50 data.

chemical.smiles | pIC50
O=C(O)c1[nH]nnc1O[C@H]1CC[C@H](c2ccc(OC(F)(F)F)cc2)CC1 | > 7.00
C[N+](C)(C)CCOC(=O)c1[nH]nnc1Sc1ccc(-c2ccc(OC(F)(F)F)cc2)cc1 | 5.00 to 6.00

Lab note: next compound to report on.
Field: pIC50 (GO (Homo sapiens, UniProt Q9UJM8)). Entry: `O=C(O)c1[nH]nnc1O[C@H]1CC[C@@H](c2ccc(OC(F)(F)F)cc2)CC1`
> 7.00

----------
target: GO (Homo sapiens, UniProt Q9UJM8); experiment: GO Enzymatic Assay (Assay 1); assay type: biochemical; set-up: purchased Novus Biologicals NBP1-72412; conditions: Table 4; class symbols without asterisk, GO Enzymatic Assay (Assay 1); read-out: Range
recorded.metric: IC50

Field: example entries. Status: answers known.
compound | measured.on | IC50
O=C(O)c1[nH]nnc1O[C@H]1CC[C@H](c2ccc(N3CCCCC3)c(Cl)c2)CC1 [Compound 441, 2,2,2-trifluoroacetate] | GO (Homo sapiens, UniProt Q9UJM8) | < 100 nM
O=C(O)c1[nH]nnc1O[C@H]1CC[C@H](c2ccc(-n3cncn3)cc2)CC1 [Compound 405] | GO (Homo sapiens, UniProt Q9UJM8) | < 100 nM
O=C(O)c1[nH]nnc1O[C@H]1CC[C@H](c2ccc(-c3nnco3)cc2)CC1 [Compound 433] | GO (Homo sapiens, UniProt Q9UJM8) | < 100 nM

Lab note: next compound to report on.
Given the compound O=C(O)c1[nH]nnc1O[C@H]1CC[C@H](c2ccc(-n3cccn3)cc2)CC1 [Compound 418] , what is its reported IC50?
< 100 nM
